Some molecules, each annotated with its measured CC50 at 72 h.
# MEASUREMENT PROTOCOL: Cytotoxicity against human THLE2 cells after 72 hrs by vialight cell proliferation assay
# Type: cell-based, THLE-2
# CONDITION CONTEXT: read-out: LC50
Dear colleague, please return just the value in µM, with no unit written.

SMILES	REPORTED RESULT
CCCc1nn(C)c2c(=O)[nH]c(-c3cc(-c4ccc(C(=O)NO)s4)ccc3OCC)nc12	2.18
CCCc1nn(C)c2c(=O)[nH]c(-c3cc(Cc4ccc(C(=O)NO)c(F)c4)ccc3OCC)nc12	3.51

Inquiry: Entry CCCc1nn(C)c2c(=O)[nH]c(-c3cc(-c4ccc(CC(=O)NO)cc4)ccc3OCC)nc12 : reported CC50 at 72 h = ?
Reply text: 15.4

Inquiry: Form field: reported CC50 at 72 h of CCCc1nc(C)c2c(=O)[nH]c(-c3cc(Cc4ccc(C(=O)NO)s4)ccc3OCC)nn12
Reply text: 6.94

Inquiry: // lookup CC50 at 72 h for CCCc1nn(C)c2c(=O)[nH]c(-c3cc([C@H]4CC[C@@H](C(=O)NO)CC4)ccc3OCC)nc12
Reply text: 16

Inquiry: Which CC50 at 72 h is reported for this molecule? CCCc1nn(C)c2c(=O)[nH]c(-c3cc(Cc4ccc(CC(=O)NO)cc4)ccc3OCC)nc12
Reply text: 5.49

Inquiry: I'd like to know its CC50 at 72 h. The molecule in question is CCCc1nn(C)c2c(=O)[nH]c(-c3cc(Cc4ccc(C(=O)NO)cc4)ccc3OCC)nc12
Reply text: 14.2

* * *

# TESTED ON: Protein deacetylase HDAC6 (Homo sapiens)
# Sequence (Q9UBN7 whole entry): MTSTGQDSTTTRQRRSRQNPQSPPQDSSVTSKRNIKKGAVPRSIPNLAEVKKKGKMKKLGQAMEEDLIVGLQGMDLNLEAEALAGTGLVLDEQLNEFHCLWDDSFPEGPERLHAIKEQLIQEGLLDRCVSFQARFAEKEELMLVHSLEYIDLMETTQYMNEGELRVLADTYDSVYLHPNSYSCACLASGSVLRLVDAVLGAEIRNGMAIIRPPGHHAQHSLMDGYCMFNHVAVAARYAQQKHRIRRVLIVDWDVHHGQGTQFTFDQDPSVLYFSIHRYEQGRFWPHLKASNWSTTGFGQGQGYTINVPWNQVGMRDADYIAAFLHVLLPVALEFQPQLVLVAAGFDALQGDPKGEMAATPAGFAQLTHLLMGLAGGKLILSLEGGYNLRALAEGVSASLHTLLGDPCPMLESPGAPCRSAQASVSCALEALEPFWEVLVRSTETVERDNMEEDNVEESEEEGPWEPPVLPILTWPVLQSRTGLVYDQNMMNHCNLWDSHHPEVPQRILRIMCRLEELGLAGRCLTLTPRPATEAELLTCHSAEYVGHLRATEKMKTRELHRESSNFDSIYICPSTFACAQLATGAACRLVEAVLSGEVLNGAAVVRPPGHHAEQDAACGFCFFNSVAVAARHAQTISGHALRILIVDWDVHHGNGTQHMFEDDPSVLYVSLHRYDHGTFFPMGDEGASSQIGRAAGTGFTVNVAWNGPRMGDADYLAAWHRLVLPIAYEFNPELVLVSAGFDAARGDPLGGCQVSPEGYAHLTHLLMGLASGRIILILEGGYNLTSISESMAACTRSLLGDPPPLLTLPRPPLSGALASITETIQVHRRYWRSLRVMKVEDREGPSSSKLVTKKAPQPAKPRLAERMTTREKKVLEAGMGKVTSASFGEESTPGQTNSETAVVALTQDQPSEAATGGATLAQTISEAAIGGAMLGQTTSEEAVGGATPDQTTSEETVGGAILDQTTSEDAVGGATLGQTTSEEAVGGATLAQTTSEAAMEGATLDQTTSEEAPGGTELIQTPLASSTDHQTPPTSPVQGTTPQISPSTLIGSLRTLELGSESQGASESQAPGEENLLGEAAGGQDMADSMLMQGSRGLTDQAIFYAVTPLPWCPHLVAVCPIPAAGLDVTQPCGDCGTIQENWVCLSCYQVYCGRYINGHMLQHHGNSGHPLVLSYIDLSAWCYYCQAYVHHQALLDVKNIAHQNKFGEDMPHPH
# MEASUREMENT PROTOCOL: Inhibition of full length human recombinant N-terminal GST-tagged HDAC6 expressed in baculovirus infected sf9 cells using fluorogenic HDAC substrate 3 after 30 mins by fluorescence assay
pIC50: −log10 of the molar value.
Please enter condition met where pIC50 is greater than or equal to 7, and condition not met where it is lower.

Some entries whose results are on file:
SMILES	TESTED ON	DISCRETE LABEL
CCCc1nc(C)c2c(=O)[nH]c(-c3cc(-c4ccc(C(=O)NO)cc4)ccc3OCC)nn12	Protein deacetylase HDAC6 (Homo sapiens)	condition not met
CCCc1nn(C)c2c(=O)[nH]c(-c3cc([C@H]4CC[C@@H](C(=O)NO)CC4)ccc3OCC)nc12	Protein deacetylase HDAC6 (Homo sapiens)	condition met

Inquiry: Entry CCCc1nn(C)c2c(=O)[nH]c(-c3cc(-c4ccc(C(=O)NO)s4)ccc3OCC)nc12 : is its pIC50 no less than 7?
Reply text: condition met

Inquiry: Record CCCc1nn(C)c2c(=O)[nH]c(-c3cc(Cc4ccc(C(=O)NO)cc4OC)ccc3OCC)nc12 ; criterion: pIC50 no lower than 7. Met?
Reply text: condition not met

Inquiry: Does the compound CCCc1nn(C)c2c(=O)[nH]c(-c3cc(OCc4ccc(C(=O)NO)cc4)ccc3OCC)nc12 have recorded pIC50 that is 7 or more?
Reply text: condition met

* * *

# TESTED ON: Cone cGMP-specific 3',5'-cyclic phosphodiesterase subunit alpha' (Homo sapiens, UniProt P51160)
# Sequence (P51160 whole entry): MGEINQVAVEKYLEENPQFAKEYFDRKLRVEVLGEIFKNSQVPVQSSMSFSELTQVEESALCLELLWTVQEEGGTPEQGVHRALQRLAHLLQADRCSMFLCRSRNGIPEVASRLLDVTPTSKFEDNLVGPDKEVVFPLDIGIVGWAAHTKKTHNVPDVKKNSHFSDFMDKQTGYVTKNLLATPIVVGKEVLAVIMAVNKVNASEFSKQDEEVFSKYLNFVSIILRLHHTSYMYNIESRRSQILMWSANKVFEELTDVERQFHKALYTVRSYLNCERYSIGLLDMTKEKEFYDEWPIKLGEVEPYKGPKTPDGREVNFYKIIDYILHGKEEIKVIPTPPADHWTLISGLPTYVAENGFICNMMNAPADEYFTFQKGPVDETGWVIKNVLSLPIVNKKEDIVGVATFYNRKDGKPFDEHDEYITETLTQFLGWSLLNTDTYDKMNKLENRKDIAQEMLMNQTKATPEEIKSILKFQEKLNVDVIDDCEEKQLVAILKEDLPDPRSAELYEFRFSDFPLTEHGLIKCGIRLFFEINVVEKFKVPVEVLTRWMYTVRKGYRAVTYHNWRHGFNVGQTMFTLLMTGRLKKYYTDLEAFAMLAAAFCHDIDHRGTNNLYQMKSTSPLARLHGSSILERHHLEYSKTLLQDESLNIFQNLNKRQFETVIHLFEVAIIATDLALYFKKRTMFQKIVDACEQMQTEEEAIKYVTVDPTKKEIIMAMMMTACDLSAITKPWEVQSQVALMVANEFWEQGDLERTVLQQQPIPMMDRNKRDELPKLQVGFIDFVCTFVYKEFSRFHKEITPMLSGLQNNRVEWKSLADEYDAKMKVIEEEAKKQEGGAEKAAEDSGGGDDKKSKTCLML
# MEASUREMENT PROTOCOL: Inhibition of PDE6C (unknown origin) using FAM-cGMP as substrate by fluorescence assay
READOUT TYPE: pIC50
// returns pIC50 (minus log10 of molar concentration), number only

Inquiry: Which pIC50 is listed for CCCc1nn(C)c2c(=O)[nH]c(-c3cc(Cc4ccc(C(=O)NO)s4)ccc3OCC)nc12 ?
Reply text: 8.85

* * *

Measured Papp at 18 h, 50 µM, listed per entry.
# MEASUREMENT PROTOCOL: Effective permeability of the compound at 50 uM after 18 hrs by UV spectroscopy based PAMPA
# Type: ADME
# CONDITION CONTEXT: read-out: Peff
// note: answer is a bare numeric in ×10⁻⁶ cm/s

Completed entries (count: 5):
SMILES	Papp at 18 h, 50 µM, ×10⁻⁶ cm/s
CCCc1nn(C)c2c(=O)[nH]c(-c3cc(Cc4ccc(CC(=O)NO)cc4)ccc3OCC)nc12	2.94
CCCc1nn(C)c2c(=O)[nH]c(-c3cc(-c4ccc(CC(=O)NO)cc4)ccc3OCC)nc12	1.97
CCCc1nn(C)c2c(=O)[nH]c(-c3cc(Cc4ccc(C(=O)NO)s4)ccc3OCC)nc12	2.91
CCCc1nn(C)c2c(=O)[nH]c(-c3cc(Cc4ccc(C(=O)NO)cc4)ccc3OCC)nc12	2.16
CCCc1nc(C)c2c(=O)[nH]c(-c3cc(S(=O)(=O)N4CCN(CC)CC4)ccc3OCC)nn12	2.14

Inquiry: # lookup: Papp at 18 h, 50 µM of CCCc1nn(C)c2c(=O)[nH]c(-c3cc([C@H]4CC[C@@H](C(=O)NO)CC4)ccc3OCC)nc12
Reply text: 1.68

Inquiry: Need Papp at 18 h, 50 µM of CN1CCc2c(c3ccccc3n2Cc2ccc(C(=O)NO)cc2)C1 , thanks.
Reply text: 1.77

Inquiry: Given the molecule CCCc1nn(C)c2c(=O)[nH]c(-c3cc(Cc4ccc(C(=O)NO)c(F)c4)ccc3OCC)nc12 , what is its reported Papp at 18 h, 50 µM?
Reply text: 2.84

Inquiry: # lookup: Papp at 18 h, 50 µM of CCCc1nn(C)c2c(=O)[nH]c(-c3cc(-c4ccc(C(=O)NO)cc4)ccc3OCC)nc12
Reply text: 2.68

* * *

# TESTED ON: cGMP-inhibited 3',5'-cyclic phosphodiesterase 3A (Homo sapiens, UniProt Q14432)
# Sequence (Q14432 whole entry): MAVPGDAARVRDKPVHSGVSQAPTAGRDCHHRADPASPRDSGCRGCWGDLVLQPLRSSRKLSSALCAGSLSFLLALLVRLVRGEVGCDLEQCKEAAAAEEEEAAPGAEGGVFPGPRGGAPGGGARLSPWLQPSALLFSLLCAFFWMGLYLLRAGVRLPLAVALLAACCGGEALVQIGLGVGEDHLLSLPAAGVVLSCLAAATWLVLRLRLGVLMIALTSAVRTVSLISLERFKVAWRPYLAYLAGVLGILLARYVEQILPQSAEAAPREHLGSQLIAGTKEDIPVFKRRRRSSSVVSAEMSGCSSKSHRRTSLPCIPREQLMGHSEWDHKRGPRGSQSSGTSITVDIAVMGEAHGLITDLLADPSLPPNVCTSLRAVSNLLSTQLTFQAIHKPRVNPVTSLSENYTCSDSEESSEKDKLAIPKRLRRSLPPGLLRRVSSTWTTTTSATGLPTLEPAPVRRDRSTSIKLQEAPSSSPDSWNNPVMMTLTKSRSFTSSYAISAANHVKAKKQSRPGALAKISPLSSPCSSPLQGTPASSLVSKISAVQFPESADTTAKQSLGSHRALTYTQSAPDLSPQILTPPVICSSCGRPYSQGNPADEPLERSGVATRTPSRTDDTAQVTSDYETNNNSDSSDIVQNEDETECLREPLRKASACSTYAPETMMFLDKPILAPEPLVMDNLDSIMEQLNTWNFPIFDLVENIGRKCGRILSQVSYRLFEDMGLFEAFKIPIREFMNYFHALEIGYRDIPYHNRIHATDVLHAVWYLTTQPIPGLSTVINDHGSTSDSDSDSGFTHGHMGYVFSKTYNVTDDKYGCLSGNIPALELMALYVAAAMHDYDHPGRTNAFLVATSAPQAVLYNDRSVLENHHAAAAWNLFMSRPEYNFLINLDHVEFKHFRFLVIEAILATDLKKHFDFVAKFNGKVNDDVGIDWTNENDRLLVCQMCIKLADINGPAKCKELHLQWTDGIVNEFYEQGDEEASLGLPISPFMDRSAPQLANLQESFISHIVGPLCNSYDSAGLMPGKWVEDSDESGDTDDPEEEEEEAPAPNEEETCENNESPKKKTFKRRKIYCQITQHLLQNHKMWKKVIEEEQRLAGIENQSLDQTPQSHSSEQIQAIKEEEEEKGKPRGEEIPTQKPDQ
Measured pIC50 values are reported for all entries that follow.
In textbook form, pIC50 equals minus log to base ten of the concentration in mol/L.

COMPOUND	pIC50
CCCc1nn(C)c2c(=O)[nH]c(-c3cc(Cc4ccc(C(=O)NO)s4)ccc3OCC)nc12	5.49

Next compound, pIC50 to be filled in.
Inquiry: Give pIC50 (cGMP-inhibited 3',5'-cyclic phosphodiesterase 3A (Homo sapiens, UniProt Q14432)) of the following compound: CCCc1nn(C)c2c(=O)[nH]c(-c3cc(CC4CC(C(=O)NO)C4)ccc3OCC)nc12 (configuration not stated)
Reply text: 5.74

* * *

# MEASUREMENT PROTOCOL: Effective permeability of the compound at 10 uM after 18 hrs by LC-MS/MS based PAMPA
# Format: ADME
# CONDITION CONTEXT: read-out: Peff
READOUT TYPE: Papp at 18 h, 10 µM

Inquiry: Name the reported Papp at 18 h, 10 µM value associated with the compound CCCc1nc(C)c2c(=O)[nH]c(-c3cc(-c4ccc(C(=O)NO)cc4)ccc3OCC)nn12
Reply text: 2.7 ×10⁻⁶ cm/s

* * *

# TESTED ON: CYP2C19 (Homo sapiens)
# MEASUREMENT PROTOCOL: Inhibition of CYP2C19 in human liver microsomes at 10 uM after 10 mins in presence of NADPH by LC-MS/MS analysis relative to control
# Format: ADME
READOUT TYPE: inhibition at 10 min, 10 µM

Inquiry: For the compound shown here, CCCc1nn(C)c2c(=O)[nH]c(-c3cc(Cc4ccc(C(=O)NO)s4)ccc3OCC)nc12 , give the reported inhibition at 10 min, 10 µM.
Reply text: < 50%

* * *

# MEASUREMENT PROTOCOL: Half life in mouse liver microsomes at 1 uM preincubated for 10 mins followed by NADPH addition measured up to 60 mins by LC-MS/MS analysis
# Type: ADME, microsome
READOUT TYPE: half-life at 1 µM (min)
Give the value, in units of min, as a plain number.

Inquiry: Sample CCCc1nn(C)c2c(=O)[nH]c(-c3cc(Cc4ccc(C(=O)NO)s4)ccc3OCC)nc12 — what was its half-life at 1 µM?
Reply text: 5.2

* * *

# TESTED ON: Histone deacetylase 3 (Homo sapiens, UniProt O15379)
# Sequence (O15379 whole entry): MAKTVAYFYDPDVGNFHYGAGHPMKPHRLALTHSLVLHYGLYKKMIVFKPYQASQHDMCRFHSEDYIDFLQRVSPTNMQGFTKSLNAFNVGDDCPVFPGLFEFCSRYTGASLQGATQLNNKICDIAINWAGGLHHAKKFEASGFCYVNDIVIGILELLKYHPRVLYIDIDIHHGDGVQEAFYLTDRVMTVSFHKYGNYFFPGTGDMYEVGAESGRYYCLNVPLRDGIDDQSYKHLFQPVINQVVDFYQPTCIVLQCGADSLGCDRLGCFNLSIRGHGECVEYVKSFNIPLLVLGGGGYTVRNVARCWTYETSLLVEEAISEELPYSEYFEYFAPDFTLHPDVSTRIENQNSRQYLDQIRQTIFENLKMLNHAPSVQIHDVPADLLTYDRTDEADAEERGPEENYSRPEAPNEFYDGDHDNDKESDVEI
READOUT TYPE: pIC50
For clarity, pIC50 is expressed as the negative log10 of concentration in mol/L.

Inquiry: GET /values?readout=pIC50&system=Histone deacetylase 3 (Homo sapiens, UniProt O15379)&item= CCCc1nc(C)c2c(=O)[nH]c(-c3cc(CC4CC(C(=O)NO)C4)ccc3OCC)nn12 (stereo unspecified)
Reply text: 6.07

* * *

# TESTED ON: UniProt:P56524
# Sequence (P56524 whole entry): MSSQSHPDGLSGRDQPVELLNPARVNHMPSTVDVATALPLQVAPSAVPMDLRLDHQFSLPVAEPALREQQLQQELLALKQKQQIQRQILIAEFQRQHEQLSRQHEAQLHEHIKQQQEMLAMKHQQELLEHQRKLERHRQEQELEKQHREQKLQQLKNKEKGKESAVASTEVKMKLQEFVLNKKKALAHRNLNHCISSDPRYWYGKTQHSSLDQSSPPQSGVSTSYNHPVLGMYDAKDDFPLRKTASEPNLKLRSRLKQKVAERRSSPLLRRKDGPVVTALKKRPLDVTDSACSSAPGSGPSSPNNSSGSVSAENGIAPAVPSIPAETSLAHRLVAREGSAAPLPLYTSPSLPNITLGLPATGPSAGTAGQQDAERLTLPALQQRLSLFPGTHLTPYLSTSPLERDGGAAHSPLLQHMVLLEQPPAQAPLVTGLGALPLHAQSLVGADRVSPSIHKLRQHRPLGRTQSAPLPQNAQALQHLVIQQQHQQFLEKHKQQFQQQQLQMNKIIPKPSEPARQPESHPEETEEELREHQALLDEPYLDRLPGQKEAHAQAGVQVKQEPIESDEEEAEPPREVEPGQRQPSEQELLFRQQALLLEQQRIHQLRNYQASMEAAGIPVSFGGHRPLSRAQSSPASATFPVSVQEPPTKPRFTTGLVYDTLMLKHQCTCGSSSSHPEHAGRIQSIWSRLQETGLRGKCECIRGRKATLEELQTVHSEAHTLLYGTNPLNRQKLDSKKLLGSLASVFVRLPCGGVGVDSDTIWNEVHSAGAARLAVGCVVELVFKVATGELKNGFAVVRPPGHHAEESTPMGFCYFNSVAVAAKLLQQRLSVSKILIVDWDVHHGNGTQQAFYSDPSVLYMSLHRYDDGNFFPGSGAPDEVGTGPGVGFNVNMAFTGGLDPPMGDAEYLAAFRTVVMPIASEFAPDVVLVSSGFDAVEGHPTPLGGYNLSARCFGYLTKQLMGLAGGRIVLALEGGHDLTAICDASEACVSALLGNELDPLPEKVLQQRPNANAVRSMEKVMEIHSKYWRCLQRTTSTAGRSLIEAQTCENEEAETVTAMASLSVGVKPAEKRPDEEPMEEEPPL
READOUT TYPE: IC50

Inquiry: GET /values?readout=IC50&system=UniProt:P56524&item= CCCc1nn(C)c2c(=O)[nH]c(-c3cc(Cc4ccc(C(=O)NO)s4)ccc3OCC)nc12
Reply text: > 10 µM

* * *

# TESTED ON: cGMP-specific 3',5'-cyclic phosphodiesterase (Homo sapiens)
# MEASUREMENT PROTOCOL: Inhibition of full length human recombinant N-terminal GST-tagged PDE5A1 expressed in baculovirus infected sf9 cells using cGMP as substrate after 30 mins by fluorescence assay
pIC50: −log10 of the molar value.
Label T for high-side pIC50 (at or above 8) and F for low-side pIC50 (below it).

Solved entries:
MOLECULE	DISCRETE LABEL
CCCc1nn(C)c2c(=O)[nH]c(-c3cc(N4CCC(C(=O)NO)CC4)ccc3OCC)nc12	F
CCCc1nn(C)c2c(=O)[nH]c(-c3cc(Cc4ccc(C(=O)NO)o4)ccc3OCC)nc12	T
CCCc1nn(C)c2c(=O)[nH]c(-c3cc(Cc4ccc(C(=O)NO)c(F)c4)ccc3OCC)nc12	F
CCCc1nn(C)c2c(=O)[nH]c(-c3cc(C(OC)c4ccc(C(=O)NO)cc4)ccc3OCC)nc12 (stereo not drawn)	F
CCCc1nn(C)c2c(=O)[nH]c(-c3cc([C@H]4CC[C@H](C(=O)NO)CC4)ccc3OCC)nc12	F
CCCc1nn(C)c2c(=O)[nH]c(-c3cc([C@H]4CC[C@@H](C(=O)NO)CC4)ccc3OCC)nc12	F
CCCc1nn(C)c2c(=O)[nH]c(-c3cc(Nc4ccc(C(=O)NO)cc4)ccc3OCC)nc12	T
CCCc1nn(C)c2c(=O)[nH]c(-c3cc(OCc4ccc(C(=O)NO)cc4)ccc3OCC)nc12	F

Attention now shifts to the item below.
Inquiry: Reported pIC50 at or above 8? CCCc1nn(C)c2c(=O)[nH]c(-c3cc(Cc4ccc(C(=O)NO)cc4OC)ccc3OCC)nc12
Reply text: F
